Catalogue of protein stability index readings, one per entry.
B1: FAM46C (parent)
chain: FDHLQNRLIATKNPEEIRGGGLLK

variants of: B1; assay: protein stability index of a GFP-peptide fusion (GPS, HEK-293T) (PSI 1-6); higher = more stable; conditions: c terminus: a fixed tail appended;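 further: lentivirally expressed fusions sorted by FACS into six bins by GFP to DsRed ratio, PSI derived from sequencing read proportions per bin multiplied by bin number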
// print number alone

Which protein stability index is listed for "I17A" ?
4.4

Which protein stability index is listed for "N13S" ?
3.62

Which protein stability index is listed for "K24S" ?
2.9

Which protein stability index is listed for "G20P" ?
3.6

Which protein stability index is listed for "I17Q" ?
4.86

Which protein stability index is listed for "E16P" ?
2.73

Which protein stability index is listed for "L22E" ?
4.3

Which protein stability index is listed for "F1W" ?
3.76

Which protein stability index is listed for "G21R" ?
3.47

Reference source for all entries: the supplement of paper PMC10567573
